A collection of molecules and their measured hydrolysis by 1209
Tested on: 1209
Experiment: Hydrolysis of reactant ligands by receptor 12C9 (column head prints 1209)
Format: biochemical, mouse
Conditions: pH 8.0; receptor/ligand uM, time h: 17 1/10, 2; 18 2/10, 24; 20 2/10, 0.33; 5 1/5, 0.33; 22 5/10, 3.5; preliminary
Experimental: ^1 Preliminary initial hydrolyses shown as the percentage of admixed reactant ligand consumed for catalyzed and spontaneous hydrolyses. "--" = No hydrolysis observed. "NT" = Not tried. All reactions were carried out at pH 8.0 in a 50 mM phosphate buffer unless otherwise noted. Hydrolytic percentages were determined by HPLC using a Hitachi model 655A12 liquid chromatograph with a C18 Vydac 201TP54 column, except as noted below. […] and 20 were assayed using fluorescence data. […]

Use the examples below as a reference point.
CC(=O)Nc1ccc(CC(=O)Oc2ccc3c(C)cc(=O)oc3c2)cc1 [Compound 20]	16 percentage of reactant ligand
CC(=O)Nc1ccc(CC(=O)Oc2cccc3ccccc23)cc1 [Compound 17]	55 percentage of reactant ligand
CC(=O)Oc1cccc2ccccc12 [Compound 18]	56 percentage of reactant ligand
CC(=O)Nc1ccc(CC(=O)Oc2ccccc2)cc1 [Compound 22]	12 percentage of reactant ligand

# context switch: different molecule, same hydrolysis by 1209
Data request: # query: hydrolysis by 1209 of entry O=C(Cc1ccc(NC(=O)C(F)(F)F)cc1)Oc1ccc2ccc(=O)oc2c1 [Compound 5]
Data returned: 11 percentage of reactant ligand
